The reported numbers originate from paper PMC9482650.

Assayed system: GOPC, Q9HD26
Assay info: holdup assay
Set-up: key: below the threshold = too weak to quantify, mostly under pKd 3.1 to 4
Settings: plain residues with an end cap or a label only (N-terminal biotin on a linker: ado-ado)
Assay endpoint: pKd
Give bare numbers.

| Binder | pKd |
| --- | --- |
| GEDRSPPTAL [MKNK1, Q9BUB5] | 3.5 |

Query binder follows.
Answer with reported pKd of MQHQRTHTRV [ZSCAN30, Q86W11]
4.41
